Recorded values, source patent US9115073B2.

MEASURED_TARGET: hPPARgamma (Homo sapiens, UniProt P37231)
Construct: Gal4-hPPARγ(LBD); Gal4 (fusion partner)
Sequence (P37231 238-503 limits assumed): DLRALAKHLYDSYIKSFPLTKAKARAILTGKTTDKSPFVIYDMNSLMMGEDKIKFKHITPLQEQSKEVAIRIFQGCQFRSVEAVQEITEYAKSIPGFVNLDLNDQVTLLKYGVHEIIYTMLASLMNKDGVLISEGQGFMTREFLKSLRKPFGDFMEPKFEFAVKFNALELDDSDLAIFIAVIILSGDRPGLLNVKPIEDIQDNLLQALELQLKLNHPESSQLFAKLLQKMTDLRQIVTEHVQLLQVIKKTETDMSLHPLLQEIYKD
ASSAY_NOTES: Gal4-hPPARgamma transactivation assay in COS-7 cells (luciferase)
EXPERIMENTAL_CONTEXT: Gal4-hPPARγ(LBD) transactivation
# EC50 per record follows
Report as a plain number; the unit nM is understood.

Some compounds with recorded EC50:
[[record]]
compound = "COC(c1ccc(Br)cc1)C1CC1c1cc(C)c(OC(C)(C)C(=O)O)c(C)c1 (racemic) [Cpd 1-1]"
measured_target = "hPPARgamma (Homo sapiens, UniProt P37231)"
metric_name = "EC50"
meas_value = 44

[[record]]
compound = "Cc1cc(C2CC2C(OCCC2CCCCC2)c2ccc(OC(F)(F)F)cc2)cc(C)c1OC(C)(C)C(=O)O (racemic) [Cpd 6-1]"
measured_target = "hPPARgamma (Homo sapiens, UniProt P37231)"
metric_name = "EC50"
meas_value = 94

[[record]]
compound = "Cc1cc(C2CC2C(OCc2ccccc2)c2ccc(OC(F)(F)F)cc2)cc(C)c1OC(C)(C)C(=O)O (single isomer, unassigned) [Cpd 11-2]"
measured_target = "hPPARgamma (Homo sapiens, UniProt P37231)"
metric_name = "EC50"
meas_value = 23


// below: EC50 requested for another compound
Ask: I'd like to know its EC50. The compound in question is COC(c1ccccc1OC(F)(F)F)C1CC1c1cc(C)c(OC(C)(C)C(=O)O)c(C)c1 (single isomer, unassigned) [Cpd 13-2]
Reply: 9
